The next entries give measured pKi for Estrogen receptor (Homo sapiens).
Would you please state pKi, meaning minus log10 of the concentration in mol/L, as a bare number?

Ask: Returns the measured pKi for the input compound. Input: C[C@]12CCC3c4ccc(O)cc4CCC3C1CC[C@@]2(O)C#Cc1cccc(C(=O)O)c1 (some centres undefined) [E2-COO-]
Reply: 8.70

Ask: Moving on to CC(C)(C)OC(=O)NCc1ccc(C#C[C@]2(O)CCC3C4CCc5cc(O)ccc5C4CC[C@@]32C)cc1 (some centres undefined) [E2-NB]
Reply: 8.57

Ask: Moving on to the next compound: C[C@]12CCC3c4ccc(O)cc4CCC3C1CC[C@@]2(O)C#Cc1ccc(CN)cc1 (some centres undefined) [E2-NH3+]
Reply: 8.39

Ask: Next record, please: C[C@]12CCC3c4ccc(O)cc4CCC3C1CC[C@@]2(O)C#Cc1ccc([N+](C)(C)C)cc1 (some centres undefined) [E2-NMe3+]
Reply: 8.85
